# experimental.target: Histone-lysine N-methyltransferase EHMT2 (Homo sapiens)
# experimental.details: qHTS Assay for Inhibitors of Histone Lysine Methyltransferase G9a; also: nearly all actives have a fitted effect of over 75% in size
# condition.description: G9a H3K9 monomethylation, AlphaScreen, 2 h; series mostly up to 59 µM
Out of some 350,000 compounds screened, about 31,000 (8.9%) were called active. About 15% were inconclusive and are not listed. Calls follow the shape of the dose curve; as a rule, active = well fitted inhibition curve with a large enough effect; inconclusive = small, poorly fitted or top-dose-only effect; inactive = no such curve, though single readings can be large or run the other way. The full list was thinned out, with actives kept by preference.
Hi there, use one of these labels in your reply, thanks! active, inactive

Here's what some known entries look like.
Query block: Fill in: this test's call for Cc1onc(-c2ccc(F)cc2F)c1C(=O)Nc1cccc(C(F)(F)F)c1 is ___
Result block: inactive

Query block: Fill in: this test's call for C/C(=N/NC(=O)c1ccc(Br)o1)c1ccc(C)o1 is ___
Result block: inactive

Query block: Fill in: this test's call for CCOC(=O)c1c(NC(=O)/C=C/c2ccco2)sc(C)c1C is ___
Result block: active

---
Query block: Fill in: this test's call for COc1ccc(C2CC(=O)NC(=O)C2)cc1 is ___
Result block: inactive

Query block: Fill in: this test's call for Cc1ccc(/C=N/NC(=S)NC2CCCCC2)o1 is ___
Result block: active

====

# experimental.target: Histone-lysine N-methyltransferase EHMT2 (Homo sapiens)
# experimental.details: qHTS Assay for Inhibitors of Histone Lysine Methyltransferase G9a; also: nearly all actives have a fitted effect of over 75% in size; as to activity, negative = inhibition: % is scaled to controls: 0 for no effect and ±100 for the full control effect
# condition.description: G9a H3K9 monomethylation, AlphaScreen, 2 h; series mostly up to 59 µM
Screen size: about 350,000 compounds; about 31,000 (8.9%) were called active. Inconclusive results (about 15%) are left out. This excerpt belongs to a sample that is enriched for actives.
readout.kind: activity, negative = inhibition

Query block: For the molecule shown here, Cc1ccc(CNC(=O)c2cccc3c2C(=O)c2ccc(N4CCC(C)CC4)cc2S3(=O)=O)cc1 , give the reported activity, negative = inhibition.
Result block: 6.64% [at 0.501 µM] (inactive)

Query block: For the molecule shown here, Cc1ccccc1N1CCN(C2CCCN(C(=O)c3cn4c(C)cccc4n3)C2)CC1 (configuration not stated) , give the reported activity, negative = inhibition.
Result block: 9.34% [at 0.501 µM] (inactive)

Query block: For the molecule shown here, Cc1ccc(COC(=O)CN2C(=O)NC3(CCCC3)C2=O)cc1 , give the reported activity, negative = inhibition.
Result block: -12.1% [at 12.7 µM] (inactive)

Query block: For the molecule shown here, O=C(c1ccco1)N1CCC2(CC1)CN(c1ncccn1)C2 , give the reported activity, negative = inhibition.
Result block: 6.99% [at 12.7 µM] (inactive)

Query block: For the molecule shown here, Cn1c(=O)c(=O)n(C)c2cc(S(=O)(=O)NCCc3ccccc3)ccc21 , give the reported activity, negative = inhibition.
Result block: 29.1% [at 0.501 µM] (inactive)

Query block: For the molecule shown here, O=C(c1ccco1)N1CCC2(CC1)CCN(c1ncccn1)CC2 , give the reported activity, negative = inhibition.
Result block: 4.8% [at 12.7 µM] (inactive)

Query block: For the molecule shown here, CC1(c2nnc(Cc3ccccc3)o2)CC(c2ccccc2F)=NO1 (configuration not stated) , give the reported activity, negative = inhibition.
Result block: -2.28% [at 2.33 µM] (inactive)

Query block: For the molecule shown here, CN1C(C(=O)NCc2ccco2)CC2Cn3c(nc4ccccc43)C21 (configuration not stated) , give the reported activity, negative = inhibition.
Result block: 16.2% [at 2.33 µM] (inactive)

Query block: For the molecule shown here, CN(C(=O)Cn1nnc(-c2ccc(F)cc2)n1)C1CCS(=O)(=O)C1 (configuration not stated) , give the reported activity, negative = inhibition.
Result block: 14.1% [at 12.7 µM] (inactive)

Query block: For the molecule shown here, O=C(COC(=O)C1(c2ccc(F)cc2)CCCC1)N1CCNC1=O , give the reported activity, negative = inhibition.
Result block: 19.8% [at 12.7 µM] (inactive)

Query block: For the molecule shown here, Cc1ccc(OCC(=O)N2CCN(S(=O)(=O)c3ccc(Cl)s3)CC2)cc1C , give the reported activity, negative = inhibition.
Result block: 6.17% [at 2.33 µM] (inactive)

Query block: For the molecule shown here, Cc1nc2cc(NC(=O)Nc3cccc(F)c3)ccc2n1C , give the reported activity, negative = inhibition.
Result block: 23.6% [at 12.7 µM] (inactive)

Query block: For the molecule shown here, O=C(CC(=O)N/N=C\c1ccc(F)cc1)NCCc1ccccc1 , give the reported activity, negative = inhibition.
Result block: 2.67% [at 0.501 µM] (inactive)

Query block: For the molecule shown here, O=C(NCC(=O)N1CCCCCCC1)c1ccccc1Cl , give the reported activity, negative = inhibition.
Result block: 8.52% [at 12.7 µM] (inactive)

Query block: For the molecule shown here, Cc1cccc(N2CCN(C(=O)c3cnc(N4CCCC4)nc3C)CC2)c1C , give the reported activity, negative = inhibition.
Result block: 5.62% [at 12.7 µM] (inactive)

Query block: For the molecule shown here, Cc1ccc(C(c2sc3nc(C)nn3c2O)N2CCN(c3ccccc3)CC2)cc1 (configuration not stated) , give the reported activity, negative = inhibition.
Result block: 15.6% [at 12.7 µM] (inactive)

Query block: For the molecule shown here, O=C(COc1ccccc1Cl)N1N=C(c2cccs2)CC1c1ccco1 (configuration not stated) , give the reported activity, negative = inhibition.
Result block: -17.2% [at 12.7 µM] (inactive)
